Data provenance is patent US9695155B2.

Tested on: johnsongrass
Experimental protocol: Test C preemergence
Format: in vivo, Sorghum halepense
Measurement context: 125 g ai/ha, preemergence; scale 0 (no effect) to 100 (complete control)
Recorded Johnsongrass plant response rating, one value per entry.
// no unit string in output, number only

Request: Would you mind telling me what Johnsongrass plant response rating value was observed for N#Cc1cn(-c2c(C#N)cccc2Oc2ncc(Cl)cn2)nn1 [Compound 273] ?
Result: 80

Request: Would you mind telling me what Johnsongrass plant response rating value was observed for N#Cc1cnn(-c2c(C#N)cccc2Oc2ncc(Cl)cn2)c1 [Compound 200] ?
Result: 98

Request: Would you mind telling me what Johnsongrass plant response rating value was observed for Fc1cnc(Oc2cccc(C(F)F)c2-n2cc(Cl)cn2)nc1 [Compound 94] ?
Result: 70

Further cases:
Request: Would you mind telling me what Johnsongrass plant response rating value was observed for CC(C)c1cnn(-c2c(C#N)cccc2Oc2ncc(Cl)cn2)c1 [Compound 85] ?
Result: 85

Request: Would you mind telling me what Johnsongrass plant response rating value was observed for Cc1cnc(Oc2cccc(C#N)c2-n2cc(C#N)cn2)nc1 [Compound 90] ?
Result: 80

Request: Would you mind telling me what Johnsongrass plant response rating value was observed for Cc1cnc(Oc2cccc(C#N)c2-n2cc(C(F)(F)F)cn2)nc1 [Compound 180] ?
Result: 98

###

System: galium
Experimental protocol: Test A postemergence
Type: in vivo, Galium aparine
Measurement context: 125 g ai/ha, 0 to 100 scale where 0 is no effect and 100 is complete control
Recorded Galium plant response rating, one value per entry.
// no unit string in output, number only

Some solved entries appear below for comparison.
Request: Would you mind telling me what Galium plant response rating value was observed for FC(F)c1cn(-c2ccccc2Oc2ncc(Cl)cn2)nn1 [Compound 147] ?
Result: 100

Request: Would you mind telling me what Galium plant response rating value was observed for COc1cccc(Oc2ncc(Cl)cn2)c1-n1cc(Cl)cn1 [Compound 169] ?
Result: 40

Further cases:
Request: Would you mind telling me what Galium plant response rating value was observed for FCc1cccc(Oc2ncc(F)cn2)c1-n1cc(I)cn1 [Compound 152] ?
Result: 90

Request: Would you mind telling me what Galium plant response rating value was observed for N#Cc1cnn(-c2c(Br)cccc2Oc2ncc(Cl)cn2)c1 [Compound 140] ?
Result: 90

Request: Would you mind telling me what Galium plant response rating value was observed for Fc1cccc(Oc2ncc(Cl)cn2)c1-n1cc(C(F)F)nn1 [Compound 141] ?
Result: 100

###

Tested on: wheat
Experimental protocol: Test A postemergence
Assay type: in vivo, Triticum aestivum
Measurement context: 1000 g ai/ha, 0 to 100 scale, 0 no effect, 100 complete control
Excerpt: […]
Recorded Plant response rating, Wheat, one value per entry.

Request: Test system wheat; read-out Plant response rating, Wheat; what value for FCc1cn(-c2ccccc2Oc2ncc(Cl)cn2)nn1 ?
Result: 70

Request: Test system wheat; read-out Plant response rating, Wheat; what value for N#Cc1cnn(-c2ccccc2Oc2ncc(Cl)cn2)n1 ?
Result: 0

Request: Test system wheat; read-out Plant response rating, Wheat; what value for NS(=O)(=O)c1cnn(-c2ccccc2Oc2ncc(Cl)cn2)c1 ?
Result: 0

Request: Test system wheat; read-out Plant response rating, Wheat; what value for Clc1cnc(Oc2ccccc2-n2cc(I)nn2)nc1 ?
Result: 40

Request: Test system wheat; read-out Plant response rating, Wheat; what value for N#Cc1cnn(-c2ccccc2Oc2ncc(Br)cn2)n1 ?
Result: 0

Request: Test system wheat; read-out Plant response rating, Wheat; what value for N#Cc1cccc(Oc2ncc(Cl)cn2)c1-n1cncn1 ?
Result: 20

Further cases:
Request: Test system wheat; read-out Plant response rating, Wheat; what value for Fc1cnc(Oc2ccccc2-n2cccn2)nc1 ?
Result: 20
